test: clinical; conditions: both, human, in vivo, inhaled or intranasal, 1.13 mg
measurement-label: half-life (h)
Write the number in h without appending the unit.

// half-life lookup, molecule = Cc1c(-c2ccc(O)cc2)n(Cc2ccc(OCCN3CCCCCC3)cc2)c2ccc(O)cc12 , result: 21
